Reported IC50 values are given for each entry in this list.
- assay.system: human CTPS1 (Homo sapiens (Human), UniProt P17812)
- Sequence (P17812 whole entry): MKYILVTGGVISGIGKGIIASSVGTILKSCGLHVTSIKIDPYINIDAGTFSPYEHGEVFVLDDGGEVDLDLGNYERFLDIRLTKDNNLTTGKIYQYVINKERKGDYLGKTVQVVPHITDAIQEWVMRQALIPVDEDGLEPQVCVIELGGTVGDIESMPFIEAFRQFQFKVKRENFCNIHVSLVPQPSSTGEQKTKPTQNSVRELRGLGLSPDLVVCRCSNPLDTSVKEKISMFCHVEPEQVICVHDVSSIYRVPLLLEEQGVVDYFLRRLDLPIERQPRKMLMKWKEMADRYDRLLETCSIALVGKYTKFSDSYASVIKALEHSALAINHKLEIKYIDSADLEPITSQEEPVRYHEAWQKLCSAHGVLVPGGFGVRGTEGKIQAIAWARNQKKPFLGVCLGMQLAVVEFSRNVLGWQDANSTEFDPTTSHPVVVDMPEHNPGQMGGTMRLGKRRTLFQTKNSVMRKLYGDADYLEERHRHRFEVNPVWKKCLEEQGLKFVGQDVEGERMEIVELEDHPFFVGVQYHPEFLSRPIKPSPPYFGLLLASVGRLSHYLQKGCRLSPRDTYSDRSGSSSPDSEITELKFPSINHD

1) CCOc1cncc(-c2ccc(C(=O)NCc3cc(NS(=O)(=O)CC(F)(F)F)ccn3)nc2)n1 < 100 nM

Query :: Supply measured IC50 of CCOc1cncc(-c2cnc(C(=O)N[C@H](C[C@H]3CCCCN3C)c3cc(NS(=O)(=O)C4CC4)ccn3)s2)n1 in your reply.
Result :: < 100 nM

Query :: Note down IC50 recorded for CCOc1cncc(-c2ccc(NC(=O)Cc3cc(NS(=O)(=O)C4CC4)ccn3)c(F)c2)n1
Result :: < 100 nM

Query :: Hello, please tell me recorded IC50 for this one: CCOc1cncc(-c2ccc(C(=O)N[C@@H](CC)c3cc(NS(=O)(=O)C4CC4)ccn3)c(F)c2)n1
Result :: < 100 nM

Query :: Provide only the value of recorded IC50 for CCOc1cncc(-n2cnc(C(=O)N3CCC[C@H]3c3ccnc(NS(=O)(=O)C4CC4)n3)c2)n1
Result :: < 100 nM

Query :: Give the measured IC50 for O=C(NCc1cc(NS(=O)(=O)C2CC2)ccn1)c1ncc(-c2cnc3ccc(Cl)cn23)s1
Result :: 100 to 1000 nM

Query :: // Input: CCOc1cncc(-c2ccc(C(=O)NCc3cc(NS(=O)(=O)C(F)(F)F)ccn3)nc2)n1 . Output its IC50 only.
Result :: < 100 nM

Query :: Determine its reported IC50: Cc1c(-c2ccc(C(=O)NC3(c4csc(NS(=O)(=O)C5CC5)n4)CC3)cc2)cnn1C
Result :: ≥ 1000 nM
